Hi there, I'd appreciate the recorded DiscoveRx cAMP antagonism % inhib for every entry that follows.
# TARGET: T1, human GIP receptor (human, UniProt P48546 22-466)
# T1 sequence (looked up): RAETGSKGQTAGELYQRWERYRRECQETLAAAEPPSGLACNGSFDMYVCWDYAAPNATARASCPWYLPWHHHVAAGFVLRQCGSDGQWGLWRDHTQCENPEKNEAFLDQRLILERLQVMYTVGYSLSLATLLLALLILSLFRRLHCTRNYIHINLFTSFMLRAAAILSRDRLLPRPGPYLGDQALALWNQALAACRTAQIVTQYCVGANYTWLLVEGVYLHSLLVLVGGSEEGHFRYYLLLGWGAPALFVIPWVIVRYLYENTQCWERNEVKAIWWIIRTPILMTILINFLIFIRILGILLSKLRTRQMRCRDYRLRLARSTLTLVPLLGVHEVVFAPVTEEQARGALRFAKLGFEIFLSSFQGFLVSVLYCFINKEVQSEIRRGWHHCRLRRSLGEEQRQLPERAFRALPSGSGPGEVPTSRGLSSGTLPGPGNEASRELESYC
# TEST METHOD NOTES: cell-based or functional assay
*1 amine or outer side, *2 acyl side, *3 side chain or, on linkers, in order; H or OH if unused. Where no end group is shown, it is not given here. Side-chain parts run from the residue outwards. [ ]: non-standard residue; d: D form. The star is where a group is joined. C18 diacid = O=C(O)CCCCCCCCCCCCCCCCC(=O)*; C16 diacid = O=C(O)CCCCCCCCCCCCCCC(=O)*; γGlu = O=C(O)[C@H](CCC(=O)[*:2])N[*:1]; pGlu = O=C1CC[C@@H](C(=O)O)N1; AEEA = NCCOCCOCC(=O)O
Numbers only, in %.

| BINDER | RECORDED VALUE |
| --- | --- |
| [pGlu]GTFISDYSIAMDRIK([AEEA-AEEA-AEEA-γGlu-C18 diacid])QQDFVNWLLAQR-NH2 [AT382] | 100 |

For the 4 binders below, give their DiscoveRx cAMP antagonism % inhib values.
1. EGTFISDYSIAMDRIK([AEEA-γGlu-C16 diacid])QQDFVNWLLAQR-NH2 (not fully specified (residue 1)) [AT373]
2. [pGlu]GTFISDYSIAMDRIK(C18 diacid)QQDFVNWLLAQR-NH2 [AT391]
3. EGTFISDYSIAMDRIK([AEEA-AEEA-γGlu-C16 diacid])QQDFVNWLLAQR-NH2 (not fully specified (residue 1)) [AT374]
4. [pGlu]GTFISDYSIAMDRIK([AEEA-AEEA-AEEA-γGlu-C16 diacid])QQDFVNWLLAQR-NH2 [AT380]

Response:
1: 94; 2: 100; 3: 100; 4: 100

The measured values listed here are drawn from patent US20220025010A1.
